Values compiled from paper PMC2771199.

- Target Or Test System: LPA4 (Homo sapiens, UniProt Q99677)
- Sequence (Q99677 whole entry, species assumed): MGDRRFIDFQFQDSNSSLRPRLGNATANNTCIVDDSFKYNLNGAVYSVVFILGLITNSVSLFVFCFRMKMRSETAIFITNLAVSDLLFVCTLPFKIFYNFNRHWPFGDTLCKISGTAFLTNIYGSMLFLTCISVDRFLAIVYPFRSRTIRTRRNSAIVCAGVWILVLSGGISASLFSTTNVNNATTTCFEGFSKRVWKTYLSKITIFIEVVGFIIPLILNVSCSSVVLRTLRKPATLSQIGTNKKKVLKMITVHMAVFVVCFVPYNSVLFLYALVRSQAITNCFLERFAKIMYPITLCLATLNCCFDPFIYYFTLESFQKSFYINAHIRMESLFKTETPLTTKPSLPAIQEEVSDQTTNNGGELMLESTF
- Experiment Description: LPA receptor-promoted intracellular Ca2+ mobilization, LPA4
- Format: cell-based
- Condition Details: read-out: IC50 LPA4; dose response
A collection of compounds and their measured IC50

Check out these entries, answers already filled in.
O=C(O)CN1C(=O)c2ccc(Oc3cccc([N+](=O)[O-])c3)cc2C1=O | > 10 µM
O=C(O)c1ccc2c(c1)C(=O)N(c1cccc(Oc3ccc([N+](=O)[O-])cc3)c1)C2=O | > 10 µM
O=C(O)CN1C(=O)c2ccc(Oc3ccc([N+](=O)[O-])cc3)cc2C1=O | > 10 µM

Now look at this one.
(Q) Determine its reported IC50: `Cc1ccc(Oc2ccc3c(c2)C(=O)N(CC(=O)O)C3=O)cc1`
(A) > 10 µM

###

- Target Or Test System: LPA3 (Homo sapiens, UniProt Q9UBY5)
- Sequence (Q9UBY5 1-353): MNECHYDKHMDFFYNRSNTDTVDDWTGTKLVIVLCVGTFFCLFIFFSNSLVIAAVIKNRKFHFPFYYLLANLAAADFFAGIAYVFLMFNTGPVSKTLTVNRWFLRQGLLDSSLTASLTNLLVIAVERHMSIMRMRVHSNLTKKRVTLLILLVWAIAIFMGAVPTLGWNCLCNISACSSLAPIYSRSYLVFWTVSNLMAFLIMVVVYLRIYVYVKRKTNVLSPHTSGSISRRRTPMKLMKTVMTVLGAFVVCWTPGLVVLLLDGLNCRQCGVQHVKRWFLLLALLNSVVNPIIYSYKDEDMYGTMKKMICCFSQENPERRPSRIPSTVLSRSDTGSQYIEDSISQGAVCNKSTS
- Experiment Description: LPA receptor-promoted intracellular Ca2+ mobilization, LPA3
- Format: cell-based
- Condition Details: Table 3; LPA3 inhibition, 10 μM compound against 200 nM LPA
Measure Name: % inhibition at 10μM

CC(=O)COc1ccc(NC(=O)CN2C(=O)c3ccc([N+](=O)[O-])cc3C2=O)cc1 [Compound 18] | Agonist
O=C(O)CN1C(=O)c2ccc(C(=O)c3cccc([N+](=O)[O-])c3)cc2C1=O [Compound 15] | Agonist
O=C(O)c1ccc2c(c1)C(=O)N(c1cccc(Oc3ccc([N+](=O)[O-])cc3)c1)C2=O [Compound 20] | > 50%

###

- Target Or Test System: LPA1 (Homo sapiens, UniProt Q92633)
- Sequence (Q92633 whole entry, species assumed): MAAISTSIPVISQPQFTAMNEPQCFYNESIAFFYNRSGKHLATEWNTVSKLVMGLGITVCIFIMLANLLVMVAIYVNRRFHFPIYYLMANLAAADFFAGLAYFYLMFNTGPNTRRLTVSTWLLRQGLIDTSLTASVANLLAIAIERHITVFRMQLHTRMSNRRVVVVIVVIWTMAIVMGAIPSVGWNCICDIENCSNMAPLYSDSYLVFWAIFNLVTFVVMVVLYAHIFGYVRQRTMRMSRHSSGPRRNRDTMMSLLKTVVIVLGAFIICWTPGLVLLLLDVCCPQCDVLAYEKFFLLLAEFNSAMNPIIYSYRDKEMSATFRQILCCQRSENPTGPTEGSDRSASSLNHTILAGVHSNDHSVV
- Experiment Description: LPA receptor-promoted intracellular Ca2+ mobilization, LPA1
- Format: cell-based
- Condition Details: read-out: IC50 LPA1; dose response
Measure Name: IC50

O=C(O)CN1C(=O)c2ccc(Oc3cccc([N+](=O)[O-])c3)cc2C1=O | > 10 µM

Okay, now this compound:
(Q) Return value of IC50 for input `O=C(O)CN1C(=O)c2ccc(Oc3ccc([N+](=O)[O-])cc3)cc2C1=O` , no commentary.
(A) > 10 µM

###

- Target Or Test System: LPA3 (Homo sapiens)
- Experiment Description: LPA receptor-promoted intracellular Ca2+ mobilization, LPA3
- Assay type: cell-based
- Condition Details: read-out: IC50 LPA3; dose response; activation by 200 nM LPA
pIC50: −log10 of the molar value.
Measure Name: pIC50

(Q) Return the recorded pIC50 value; entry: O=C(O)CN1C(=O)c2ccc(Oc3ccc([N+](=O)[O-])cc3)cc2C1=O [Compound 11]
(A) < 5.00
